Molecular target: T1, HTRA4, P83105
T1 sequence (P83105 378-476, limits assumed, looked up): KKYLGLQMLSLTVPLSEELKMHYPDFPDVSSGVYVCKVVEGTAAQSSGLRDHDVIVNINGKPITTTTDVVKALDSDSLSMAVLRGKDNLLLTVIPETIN
Assay: holdup assay
Parameters: key: below the threshold = too weak to quantify, mostly under pKd 3.1 to 4
Conditions: plain residues with an end cap or a label only (N-terminal biotin on a linker: ahx)
recorded metric: pKd

HNAFLSVTTV [PDZRN4, Q6ZMN7] ... below the threshold
RRRKRKRTYL [HPV49-L2, P36762] ... 3.66
LSDPSVSTVV [GRIN1, Q05586;Q05586-2] ... below the threshold
GYDWGPATDL [TJP3, O95049] ... below the threshold
PSASCAVTAA [PDLIM4, P50479;P50479-2] ... below the threshold
RAVEEEESRF [PSCDBP, O60759] ... below the threshold
TVICWPGSLV [LNX2, Q8N448] ... 4.45
NRKREIFSNF [NHERF2, Q15599] ... below the threshold
ESLLLGPSNF [SHROOM4, Q9ULL8] ... below the threshold
SDSSGQEYSL [KCTD3, Q9Y597] ... below the threshold

Values compiled from paper PMC9482650.
